tested on: K562; experiment: NCI tumour cell line growth inhibition, 48 h
Calls of active or inactive are those of the source. Cut-off read from the data, not from the text of the source: active = GI50 up to about 1.1 µM and inactive = higher.
property: GI50

>>> df
                                   compound  property  reported_measurement
0  CCOC(=O)/C(C(=O)Nc1ccc(F)cc1)=C(/N)N1CCCC1      GI50   > 100 µM (inactive)

Data request, read-out GI50, for O=C(O)CNc1ccc(C(=O)O)cc1
> 100 µM (inactive)

====

test system: RXF 393; assay: NCI tumour cell line growth inhibition, 48 h
The source made the active and inactive calls. Rule as the data show it: active = GI50 up to about 1.1 µM and inactive = higher.
property: GI50

See these solved cases before continuing.
                                   compound  property  reported_measurement
0  NC(C(F)(F)F)(C(F)(F)F)P(=O)(Cc1ccccc1)Cc1ccccc1      GI50    28.9 µM (inactive)
1  CCOC(=O)/C=C/[C@H](O)[C@@H](O)/C=C/C(=O)OCC      GI50    20.2 µM (inactive)
2          N#Cc1c(O)cc(=O)n2c1[nH]c1ccccc12      GI50   > 100 µM (inactive)

Data request, read-out GI50, for O=C(O)C1OC1C(=O)O (centres undefined)
> 100 µM (inactive)

====

test system: MDA-N; test: NCI tumour cell line growth inhibition, 48 h
The source made the active and inactive calls. Cut-off read from the data, not from the text of the source: active = GI50 up to about 1.1 µM and inactive = higher.
Your reply should match one of these outcome classes. y = active, n = inactive

Example entries and their recorded answers appear below.
molecule	class assignment
C[N+]1(C)CCCC(C#N)(c2ccccc2)CC1 (stereo not given)	n
Cn1c(-c2ccccc2)cc(-c2ccc3c(c2)OCO3)c1-c1ccsc1	n
O=C(/N=N/c1ccc(Cl)cc1Cl)NNc1ccc(Cl)cc1Cl	n
Cn1c(S)nc(C(N)=O)c1N	n
CCN1/C(=C/C#C/C(C)=C\c2sc3ccc(Cl)cc3[n+]2CC)Sc2ccc(Cl)cc21	n
C=CCC(CNC(=O)OCc1ccccc1)O[Si](C)(C)C(C)(C)C (stereo not given)	n
Cc1ccsc1/C(S)=N\c1ccc(Cl)c(/C=N/OC(C)(C)C)c1	n
COCCCN(Cc1cc(OC)c(OC)c(OC)c1)C(=S)Nc1cccc(Cl)c1	n
CC(=O)OC1COC(n2c3ccccc3c3ccc4c5ccccc5[nH]c4c32)C(OC(C)=O)C1OC(C)=O (stereo not given)	n
Cc1nc(O)nc(N(CCO)/N=C/c2ccc(Cl)cc2)c1C(=O)Nc1ccc(Cl)cc1	n

Can you look up the reported call for O=C1CCCC2=C1CC1=C(CCCC1=O)N2c1ccc(-c2ccccc2)cc1 for me?
n

Moving on to COc1cccc(C(=O)O[C@H]2[C@@H]3[C@]4(OC(C)=O)CO[C@@H]4C[C@H](O)[C@@]3(C)C(=O)[C@H](OC(C)=O)C3=C(C)[C@@H](OC(=O)[C@H](O)[C@@H](NC(=O)OC(C)(C)C)c4ccco4)C[C@]2(O)C3(C)C)c1
y

Moving on to COC(=O)C(Cc1c[nH]c2ccccc12)NP(=O)(O)OCC1OC(n2cc(I)c(=O)[nH]c2=O)CC1O (stereo not given)
n

Moving on to CCOC(=O)Cn1c(=O)c2nc(SC)sc2n(-c2ccc(C)cc2)c1=S
n

Moving on to CCOC(=O)c1csc(-c2cn(C)c3c2C(=O)C(OC)=CC3=O)n1
n
